Reported values of EC50 for individual entries
target: human GPR40 (Homo sapiens, UniProt O14842); assay: Cell-based aequorin assay using human GPR40; conditions: activation of human GPR40; CHO cells stably transfected with GPR40 and Aequorin; 0.01% HSA; aequorin luminescence
Sequence (O14842 whole entry): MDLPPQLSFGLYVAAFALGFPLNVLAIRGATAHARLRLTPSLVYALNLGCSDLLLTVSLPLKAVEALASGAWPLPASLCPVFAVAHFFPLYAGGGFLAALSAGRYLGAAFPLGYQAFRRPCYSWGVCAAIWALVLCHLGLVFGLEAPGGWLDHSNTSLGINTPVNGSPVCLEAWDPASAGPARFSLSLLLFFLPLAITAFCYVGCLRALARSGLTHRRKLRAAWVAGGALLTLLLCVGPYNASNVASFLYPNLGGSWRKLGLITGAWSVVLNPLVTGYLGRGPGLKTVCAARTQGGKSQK

Solved cases below.
{"structure_string": "CC(C)(C)c1ccc(-c2noc(COc3ccc([C@H](CC(=O)O)c4ccon4)cc3)n2)cc1", "readout_name": "EC50", "endpoint_value": "100 to 1000 nM"}
{"structure_string": "CCCOc1c(C)cc(-c2nc(C)c(COc3ccc([C@H](CC(=O)O)c4ccon4)cc3)s2)cc1C", "readout_name": "EC50", "endpoint_value": "10 to 100 nM"}
{"structure_string": "CCCCOc1ccc(-c2nc(C)c(COc3ccc([C@H](CC(=O)O)c4ccon4)cc3)s2)cc1Cl", "readout_name": "EC50", "endpoint_value": "10 to 100 nM"}

What EC50 appears in the records for this compound with human GPR40 (Homo sapiens, UniProt O14842)? Cc1nc(-c2ccc(CCCO)cc2)sc1COc1ccc([C@H](CC(=O)O)c2ccon2)cc1
1000 to 10000 nM

What EC50 appears in the records for this compound with human GPR40 (Homo sapiens, UniProt O14842)? Cc1ccc(-c2ccc(COc3ccc([C@H](CC(=O)O)c4ccon4)cc3)s2)cc1
10 to 100 nM

What EC50 appears in the records for this compound with human GPR40 (Homo sapiens, UniProt O14842)? Cc1cc(-c2ccc(C(F)(F)F)cc2)sc1COc1ccc([C@H](CC(=O)O)c2ccon2)cc1
10 to 100 nM

What EC50 appears in the records for this compound with human GPR40 (Homo sapiens, UniProt O14842)? CCCCc1ccc(-c2cc(COc3ccc([C@H](CC(=O)O)c4ccon4)cc3)c(C)o2)cc1
100 to 1000 nM

What EC50 appears in the records for this compound with human GPR40 (Homo sapiens, UniProt O14842)? CCN(CC)Cc1ccc(-c2nc(C)c(COc3ccc([C@H](CC(=O)O)c4ccon4)cc3)s2)cc1
1000 to 10000 nM

What EC50 appears in the records for this compound with human GPR40 (Homo sapiens, UniProt O14842)? Cc1ccc(-c2nc(C)c(COc3ccc([C@H](CC(=O)O)c4ccon4)cc3)s2)cc1
10 to 100 nM

What EC50 appears in the records for this compound with human GPR40 (Homo sapiens, UniProt O14842)? C=C(C)c1ccc(COc2ccc([C@H](CC(=O)O)c3ccon3)cc2)cc1OC(F)(F)F
10 to 100 nM

What EC50 appears in the records for this compound with human GPR40 (Homo sapiens, UniProt O14842)? CCCCc1ccc(-c2cc(COc3ccc([C@H](CC(=O)O)c4ccon4)cc3)ccc2C)cc1
100 to 1000 nM

What EC50 appears in the records for this compound with human GPR40 (Homo sapiens, UniProt O14842)? C=C(C)c1cc(COc2ccc([C@H](CC(=O)O)c3ccon3)cc2)ccc1OC(F)(F)F
10 to 100 nM

What EC50 appears in the records for this compound with human GPR40 (Homo sapiens, UniProt O14842)? Cc1nc(-c2ccc(C(C)(C)C)cc2)sc1COc1ccc([C@H](CC(=O)O)c2ccon2)cc1
10 to 100 nM

What EC50 appears in the records for this compound with human GPR40 (Homo sapiens, UniProt O14842)? O=C(O)C[C@@H](c1ccc(OCc2cccc(NC(=O)c3ccc(C(F)(F)F)cc3)c2)cc1)c1ccon1
100 to 1000 nM

What EC50 appears in the records for this compound with human GPR40 (Homo sapiens, UniProt O14842)? Cc1ccc(-c2nc(C)c(COc3ccc([C@@H](CC(=O)O)c4ccon4)cc3)s2)cc1
1000 to 10000 nM

What EC50 appears in the records for this compound with human GPR40 (Homo sapiens, UniProt O14842)? Cc1oc(-c2ccc(C(F)(F)F)cc2)nc1COc1ccc([C@H](CC(=O)O)c2ccon2)cc1
100 to 1000 nM
